B1: HDV Ribozyme (parent)
chain: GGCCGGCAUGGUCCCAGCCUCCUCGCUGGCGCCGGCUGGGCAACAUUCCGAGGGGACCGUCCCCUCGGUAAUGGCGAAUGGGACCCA

- Variants of: B1
- assay: self-cleavage, relative activity (ratio to wild type); higher = more cleavage; co-transcriptional
measurement_type: self-cleavage
Give your answer as a number; write no unit.

I am curious: what self-cleavage value has been reported for C15G C86A ? 0.712

I am curious: what self-cleavage value has been reported for C36U C41U ? 0.602

I am curious: what self-cleavage value has been reported for U20G A83U ? 0.0554

I am curious: what self-cleavage value has been reported for C14U U65G ? 0.997

I am curious: what self-cleavage value has been reported for A70U G82A ? 0.469

I am curious: what self-cleavage value has been reported for C4G A83G ? 0.192

I am curious: what self-cleavage value has been reported for C22A G50U ? 0.293

I am curious: what self-cleavage value has been reported for C24G U72A ? 0.0437

I am curious: what self-cleavage value has been reported for U46C C61G ? 0.734

I am curious: what self-cleavage value has been reported for C19U G67A ? 0.0739

I am curious: what self-cleavage value has been reported for C63A G67A ? 0.35

I am curious: what self-cleavage value has been reported for A8U C44G ? 0.731

I am curious: what self-cleavage value has been reported for C13G G29U ? 0.0415

I am curious: what self-cleavage value has been reported for U72A G80A ? 0.169

I am curious: what self-cleavage value has been reported for C32A C86A ? 0.356

I am curious: what self-cleavage value has been reported for G35C A42U ? 0.0339

I am curious: what self-cleavage value has been reported for G52A U72G ? 0.749

I am curious: what self-cleavage value has been reported for U79C C84G ? 0.214

I am curious: what self-cleavage value has been reported for A51G G80U ? 0.229

I am curious: what self-cleavage value has been reported for U47C U60G ? 0.935

I am curious: what self-cleavage value has been reported for U9C G80U ? 0.193

I am curious: what self-cleavage value has been reported for C44U G80C ? 0.242

I am curious: what self-cleavage value has been reported for C62A G67A ? 0.578

I am curious: what self-cleavage value has been reported for C15G U23G ? 0.415

I am curious: what self-cleavage value has been reported for C7U C86G ? 0.617

I am curious: what self-cleavage value has been reported for C41G G82U ? 0.157

I am curious: what self-cleavage value has been reported for C58G G80U ? 0.0903

I am curious: what self-cleavage value has been reported for G10C A43U ? 0.415

I am curious: what self-cleavage value has been reported for U20G G80C ? 0.0519

I am curious: what self-cleavage value has been reported for C24U C30U ? 0.142

I am curious: what self-cleavage value has been reported for C4G U72A ? 0.0437

I am curious: what self-cleavage value has been reported for A8G C75G ? 0.525

I am curious: what self-cleavage value has been reported for G10C ? 0.935

I am curious: what self-cleavage value has been reported for G28A C58A ? 0.0639

I am curious: what self-cleavage value has been reported for G54C A56U ? 1.06

I am curious: what self-cleavage value has been reported for C13U U72G ? 0.266

I am curious: what self-cleavage value has been reported for U23A G29A ? 0.0804

I am curious: what self-cleavage value has been reported for G5A C66U ? 0.305

I am curious: what self-cleavage value has been reported for U27A A56U ? 0.923

I am curious: what self-cleavage value has been reported for G5U G10A ? 0.135

I am curious: what self-cleavage value has been reported for C24G A71U ? 0.106

I am curious: what self-cleavage value has been reported for A45U C63A ? 0.784

I am curious: what self-cleavage value has been reported for C7A G52C ? 0.482

I am curious: what self-cleavage value has been reported for G80C C85A ? 0.117

I am curious: what self-cleavage value has been reported for C33U A71C ? 0.374

I am curious: what self-cleavage value has been reported for G29U G35C ? 0

I am curious: what self-cleavage value has been reported for C18G C41A ? 0.196

I am curious: what self-cleavage value has been reported for U37C U69A ? 0.9

I am curious: what self-cleavage value has been reported for G38C C63U ? 0.194

I am curious: what self-cleavage value has been reported for C18U A42G ? 0.151

I am curious: what self-cleavage value has been reported for A56G C84U ? 0.973

I am curious: what self-cleavage value has been reported for G35A G38A ? 0.0923

I am curious: what self-cleavage value has been reported for C22U C85U ? 0.577

I am curious: what self-cleavage value has been reported for A51G G81A ? 0.285

I am curious: what self-cleavage value has been reported for G40A G73A ? 0.669

I am curious: what self-cleavage value has been reported for C58G G82A ? 0.277

I am curious: what self-cleavage value has been reported for G40A U47C ? 1.03

I am curious: what self-cleavage value has been reported for C63U C85U ? 1.01

I am curious: what self-cleavage value has been reported for C22A C86A ? 0.448

I am curious: what self-cleavage value has been reported for U9G C49A ? 1.11

I am curious: what self-cleavage value has been reported for G28A U65A ? 0.0755

I am curious: what self-cleavage value has been reported for C4G C36A ? 0.0241

I am curious: what self-cleavage value has been reported for C13A G34U ? 0

I am curious: what self-cleavage value has been reported for U72A G73A ? 0.617

I am curious: what self-cleavage value has been reported for G25A G67U ? 0.401

I am curious: what self-cleavage value has been reported for A8G A43U ? 0.519

I am curious: what self-cleavage value has been reported for C4U G50A ? 0.686

I am curious: what self-cleavage value has been reported for G74U U79C ? 0.0963

I am curious: what self-cleavage value has been reported for C22U C41A ? 0.674

I am curious: what self-cleavage value has been reported for U23C A83U ? 0.767

I am curious: what self-cleavage value has been reported for U9G A51G ? 0.95

I am curious: what self-cleavage value has been reported for C57A C63U ? 1.12

I am curious: what self-cleavage value has been reported for C33G G74U ? 0.173

I am curious: what self-cleavage value has been reported for C7U C62U ? 0.831

I am curious: what self-cleavage value has been reported for G40U C84G ? 0.354

I am curious: what self-cleavage value has been reported for G34A A71C ? 0.0604

I am curious: what self-cleavage value has been reported for G25A G31U ? 0.0536

I am curious: what self-cleavage value has been reported for C7G G68C ? 0.0504

I am curious: what self-cleavage value has been reported for G34C G54A ? 0.166

I am curious: what self-cleavage value has been reported for U9G C85U ? 1.14

I am curious: what self-cleavage value has been reported for G11U U72A ? 0.287

I am curious: what self-cleavage value has been reported for A8C G67C ? 0.623

I am curious: what self-cleavage value has been reported for C41A C84G ? 0.749

I am curious: what self-cleavage value has been reported for A8U G68C ? 0.752

I am curious: what self-cleavage value has been reported for C22A C57G ? 0.543

I am curious: what self-cleavage value has been reported for U12A G67A ? 0.383

I am curious: what self-cleavage value has been reported for C49A G54C ? 0.843

I am curious: what self-cleavage value has been reported for G29A G39U ? 0.0432

I am curious: what self-cleavage value has been reported for U12G G34U ? 0.266

I am curious: what self-cleavage value has been reported for A43C G76U ? 0.95

I am curious: what self-cleavage value has been reported for C64U A70G ? 0.701
